System: Spontaneously Hypertensive rat
assayDetails: antihypertensive activity, Spontaneously Hypertensive Rat (Table II)
Assay type: in vivo
testParameters: SHR; 30 mg/kg oral
Counter-ions that a name gives are not always drawn.
Rule for this label: Yes means ΔBP 2 hours is less than -30 mm Hg; No means ΔBP 2 hours is at least -30 mm Hg.

Worked examples follow.
1. COc1ccccc1N1CCN(CCN2Cc3cc(Cl)c(S(N)(=O)=O)cc3C2=O)CC1	Yes
2. NS(=O)(=O)c1cc2c(cc1Cl)CN(CCCN1CCN(Cc3ccccc3)CC1)C2=O	No
3. Cl.N#Cc1cccnc1N1CCN(CCCN2Cc3cc(Cl)c(S(N)(=O)=O)cc3C2=O)CC1	No
4. NS(=O)(=O)c1cc2c(cc1Cl)CN(CCCN1CCN(C(=O)c3ccc(F)cc3)CC1)C2=O	No

--- query ---
Check if ΔBP 2 hours falls below -30 mm Hg for NS(=O)(=O)c1cc2c(cc1Cl)CN(CCCN1CCN(c3cccc(C(F)(F)F)c3)CC1)C2=O [Example IX, hydrochloride hemihydrate] .
Yes

====

Test system: Spontaneously Hypertensive rat
assayDetails: antihypertensive activity, Spontaneously Hypertensive Rat (Table II)
Format: in vivo
testParameters: SHR; 30 mg/kg oral
Where a name gives a salt, the structure may show the parent alone.
propertyMeasured: ΔBP 4 hours (mm Hg)
Report only the number, with the unit mm Hg understood.

Illustrative cases are given below, each with its answer.
1. NS(=O)(=O)c1cc2c(cc1Cl)CN(CCCN1CCN(c3cccc(Cl)c3)CC1)C2=O [Example II, hydrochloride hemihydrate]	-18
2. NS(=O)(=O)c1cc2c(cc1Cl)CN(CCCN1CCN(C(=O)c3ccc(F)cc3)CC1)C2=O	-9
3. Cl.N#Cc1cccnc1N1CCN(CCCN2Cc3cc(Cl)c(S(N)(=O)=O)cc3C2=O)CC1	-7

Form entry - test system: Spontaneously Hypertensive rat; read-out: ΔBP 4 hours; compound: "Cc1ccccc1N1CCN(CCCN2Cc3cc(Cl)c(S(N)(=O)=O)cc3C2=O)CC1"
-53

Also, "NS(=O)(=O)c1cc2c(cc1Cl)CN(CCCN1CCN(Cc3ccccc3)CC1)C2=O" please.
-30

Also, "Cl.NS(=O)(=O)c1cc2c(cc1Cl)CN(CCCN1CCN(C(=O)c3ccccc3)CC1)C2=O.O" please.
-14

Also, "COc1ccccc1N1CCN(CCN2Cc3cc(Cl)c(S(N)(=O)=O)cc3C2=O)CC1" please.
-69

Also, "COc1ccccc1N1CCN(CCCCN2Cc3cc(Cl)c(S(N)(=O)=O)cc3C2=O)CC1" please.
-60

====

assayDetails: conscious rat diuretic screen of Lipschitz (Table I)
Type: in vivo, rat (female Sprague Dawley; male Okamoto-Aoki)
testParameters: Rattus norvegicus, po, 3 mg/kg oral; female Sprague Dawley rats; vs control; read-out: Volume Ratio
Counter-ions that a name gives are not always drawn.
propertyMeasured: response vs control in vivo at 3 mg/kg
Please answer in the form of a number followed by its unit of measurement.

Illustrative cases are given below, each with its answer.
1) NS(=O)(=O)c1cc2c(cc1Cl)CN(CCCN1CCN(Cc3ccccc3)CC1)C2=O [Example V]	128%
2) Cl.N#Cc1cccnc1N1CCN(CCCN2Cc3cc(Cl)c(S(N)(=O)=O)cc3C2=O)CC1 [Example VI, hydrochloride]	153%
3) Cl.NS(=O)(=O)c1cc2c(cc1Cl)CN(CCCN1CCN(C(=O)c3ccccc3)CC1)C2=O.O [Example VII, hydrochloride monohydrate]	89%
4) COc1ccccc1N1CCN(CCCCN2Cc3cc(Cl)c(S(N)(=O)=O)cc3C2=O)CC1 [Example XI]	108%
5) COc1ccccc1N1CCN(CCCN2Cc3cc(Cl)c(S(N)(=O)=O)cc3C2=O)CC1 [Example I]	93%
6) NS(=O)(=O)c1cc2c(cc1Cl)CN(CCCN1CCN(c3cccc(C(F)(F)F)c3)CC1)C2=O [Example IX, hydrochloride hemihydrate]	102%
7) NS(=O)(=O)c1cc2c(cc1Cl)CN(CCCN1CCN(C(=O)c3ccc(F)cc3)CC1)C2=O [Example VIII]	89%

Continue with the next compound.
What value of response vs control in vivo at 3 mg/kg has been recorded for this entry: Cc1ccccc1N1CCN(CCCN2Cc3cc(Cl)c(S(N)(=O)=O)cc3C2=O)CC1 [Example IV]
104%

====

A collection of compounds and their measured response vs control in vivo at 3 mg/kg
assayDetails: conscious rat diuretic screen of Lipschitz (Table I)
Type: in vivo, rat (female Sprague Dawley; male Okamoto-Aoki)
testParameters: Rattus norvegicus, po, 3 mg/kg oral; female Sprague Dawley rats; vs control; read-out: K+ Ratio
Please answer in the form of a number followed by its unit of measurement.

Illustrative cases are given below, each with its answer.
1) Cl.NS(=O)(=O)c1cc2c(cc1Cl)CN(CCCN1CCN(c3ccccc3)CC1)C2=O.O [Example X, hydrochloride hydrate]	121%
2) Cl.NS(=O)(=O)c1cc2c(cc1Cl)CN(CCCN1CCN(C(=O)c3ccccc3)CC1)C2=O.O [Example VII, hydrochloride monohydrate]	113%
3) Cc1ccccc1N1CCN(CCCN2Cc3cc(Cl)c(S(N)(=O)=O)cc3C2=O)CC1 [Example IV]	97%

What value of response vs control in vivo at 3 mg/kg has been recorded for this entry: COc1ccccc1N1CCN(CCCN2Cc3cc(Cl)c(S(N)(=O)=O)cc3C2=O)CC1 [Example I]
100%
